experimental.details: in vivo
study.conditions: male, Sprague Dawley, rat, iv, 1 mg/kg
test.readout: Vd (L/kg)
Value expressed in L/kg; do not type the unit.

Input `CCC(CC)c1cc(C)nc2c(-c3sc(N(C)C)nc3Cl)c(C)nn12` , output reported Vd.
7.2

###

experimental.details: Bioavailability and pharmacokinetic properties (volume of distribution, plasma clearance)
study.conditions: male, Sprague Dawley, rat, plasma, iv, 1 mg/kg
test.readout: Vd (L/kg)
Value expressed in L/kg; do not type the unit.

Input CCCCN(CC)c1nc(C)nc2c1c(C)cn2-c1c(C)cc(C)cc1C [CP154526] , output reported Vd.
114

###

test.readout: pKi
Reminder that pKi is minus the log10 of a molar concentration.

Recall the reported pKi of `CCC(CC)c1cc(C)nc2c(-c3sc(N(C)C)nc3Cl)c(C)nn12` when tested on human CRF1 (Homo sapiens, UniProt P34998).
Sequence (P34998 24-415): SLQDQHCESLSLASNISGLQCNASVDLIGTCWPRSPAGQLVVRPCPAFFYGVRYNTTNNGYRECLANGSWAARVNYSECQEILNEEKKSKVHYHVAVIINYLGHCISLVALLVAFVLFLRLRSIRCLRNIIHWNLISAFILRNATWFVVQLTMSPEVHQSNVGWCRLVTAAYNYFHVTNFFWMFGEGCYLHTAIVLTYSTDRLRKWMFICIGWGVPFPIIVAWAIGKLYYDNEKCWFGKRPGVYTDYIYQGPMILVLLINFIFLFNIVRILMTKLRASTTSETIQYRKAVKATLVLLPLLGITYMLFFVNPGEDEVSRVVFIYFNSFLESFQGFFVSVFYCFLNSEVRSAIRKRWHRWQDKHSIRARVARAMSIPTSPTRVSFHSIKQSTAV
8.21
